Data provenance: patent US20090012103A1

- Target of assay: hERG potassium channel (Homo sapiens)
- Sequence (Q12809 whole entry): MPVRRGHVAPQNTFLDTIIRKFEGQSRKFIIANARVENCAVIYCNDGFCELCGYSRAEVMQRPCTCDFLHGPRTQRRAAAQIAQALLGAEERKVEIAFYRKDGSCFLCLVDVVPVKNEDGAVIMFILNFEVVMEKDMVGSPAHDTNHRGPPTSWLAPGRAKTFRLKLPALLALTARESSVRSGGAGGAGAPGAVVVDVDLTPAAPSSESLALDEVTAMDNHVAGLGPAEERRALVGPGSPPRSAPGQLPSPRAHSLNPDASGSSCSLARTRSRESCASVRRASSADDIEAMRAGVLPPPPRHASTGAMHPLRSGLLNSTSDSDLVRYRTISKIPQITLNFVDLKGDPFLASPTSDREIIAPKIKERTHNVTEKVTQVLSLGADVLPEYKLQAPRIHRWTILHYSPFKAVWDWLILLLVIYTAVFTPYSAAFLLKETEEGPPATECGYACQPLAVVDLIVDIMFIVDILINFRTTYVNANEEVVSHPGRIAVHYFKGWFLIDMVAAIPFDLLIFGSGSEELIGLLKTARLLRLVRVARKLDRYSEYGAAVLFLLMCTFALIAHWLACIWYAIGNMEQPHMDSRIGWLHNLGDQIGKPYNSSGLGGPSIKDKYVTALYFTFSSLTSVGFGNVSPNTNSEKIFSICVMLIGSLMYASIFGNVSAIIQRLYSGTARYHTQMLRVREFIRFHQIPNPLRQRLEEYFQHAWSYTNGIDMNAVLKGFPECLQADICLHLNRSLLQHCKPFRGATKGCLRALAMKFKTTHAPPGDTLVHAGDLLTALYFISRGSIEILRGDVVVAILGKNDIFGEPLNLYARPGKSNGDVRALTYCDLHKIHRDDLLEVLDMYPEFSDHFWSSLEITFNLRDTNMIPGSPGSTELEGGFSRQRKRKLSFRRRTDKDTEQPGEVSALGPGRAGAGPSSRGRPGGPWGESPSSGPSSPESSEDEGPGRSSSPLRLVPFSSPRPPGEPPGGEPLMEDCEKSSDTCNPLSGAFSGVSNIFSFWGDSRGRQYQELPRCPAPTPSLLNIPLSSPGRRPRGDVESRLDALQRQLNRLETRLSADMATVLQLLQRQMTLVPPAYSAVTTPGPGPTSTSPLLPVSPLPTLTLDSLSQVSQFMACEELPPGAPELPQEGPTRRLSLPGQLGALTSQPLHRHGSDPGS
- Protocol details: hERG screening assay (PatchXpress patch clamp, CHO cell line)
- Experimental conditions: 10 μM
Assign class by hERG Patch Clamp hERG % blk: not lower than 50% means YES; lower than 50% means NO.

In [3]: df
Out[3]:
                                    molecule  answer_label
 0  CC1=C(C(=O)OCc2ccccc2)C(c2nccs2)c2cn[nH]c2N1 (centres unmarked)            NO
 1  CC1=C(C(=O)OC(C)C)C(c2cccc3ccccc23)n2nnnc2N1 (centres unmarked)            NO
 2  CC1=C(C(=O)OCc2ccccc2)C(c2c(-c3ccc(C(=O)O)cc3)sc3ccccc23)n2nnnc2N1 (centres unmarked)            NO
 3  CCOC(=O)C1=C(C)Nc2nnnn2C1c1cc2ccccc2o1 (centres unmarked)            NO
 4  CC1=C(C(=O)OCc2ccccc2)C(c2ccccc2N2CCN(C)CC2)n2nnnc2N1 (centres unmarked)           YES
 5  CC1=C(C(=O)OCc2ccccc2)C(c2ccccc2N2CCCCC2)n2nnnc2N1 (centres unmarked)            NO
 6  CC1=C(C(=O)OCc2ccccc2)C(c2c3ccccc3cc3ccccc23)n2nnnc2N1 (centres unmarked)            NO
 7  CC1=C(C(=O)OCc2ccccc2)C(c2cc3ccccc3o2)n2nnnc2N1 (centres unmarked)           YES
 8  CC1=C(C(=O)OCc2ccccc2)C(c2ccccc2-c2cccc(NS(C)(=O)=O)c2)n2nnnc2N1 (centres unmarked)            NO
 9  CC1=C(C(=O)N2CCC(c3ccccc3)CC2)C(c2ccsc2)C2=C(CCCC2=O)N1 (centres unmarked)           YES
10  COc1ccc(COC(=O)C2=C(C)Nc3nnnn3C2c2cccc3ccccc23)cc1OC (centres unmarked)            NO
11  CC1=C(C(=O)OC(C)C)C(c2ccc(Br)s2)C(C(=O)OC(C)C)=C(C)N1           YES
12  CCOC(=O)C1=C(C)Nc2nnnn2C1c1ccccc1-n1ccnc1.Cl (centres unmarked)            NO
13  CCOC(=O)C1=C(C)NC(C)=C(C(=O)OCC)C1c1sc2ccccc2c1C           YES
14  CC1=C(C(=O)OCc2ccccc2)C(c2ccccc2-c2ccc(C(=O)O)cc2)C2=C(CCCC2=O)N1 (centres unmarked)            NO

====

- Target of assay: wild-type human cardiac sodium channel, hNav1.5 (Homo sapiens)
- Protocol details: Late INa screening assay (late sodium current, PatchXpress whole cell patch clamp)
- Type: cell-based
- Experimental conditions: compound at 10 μM; read-out: Late INa % blk
Decide by inhibition at 10 µM: equal to or exceeding 40% means Criterion met, less means Criterion not met.

>>> print(df.to_string())
                                    compound       answer_label
 0  CCOC(=O)C1=C(C)Nc2nnnn2C1c1ccccc1-c1cccnc1 (stereo not drawn)  Criterion not met
 1  CCOC(=O)C1=C(C)Nc2nnnn2C1c1cccc(Oc2cccc(C(=O)O)c2)c1 (stereo not drawn)  Criterion not met
 2  N#CC1=C(N)OC2=C(C(=O)CC2)C1c1ccc(Br)cc1 (stereo not drawn)  Criterion not met
 3  CCOC(=O)C1=C(C)NC2=C(C(=O)c3ccccc32)C1c1cccs1 (stereo not drawn)  Criterion not met
 4  CC1(C)CC(=O)C2=C(C1)OC(N)=C(C#N)C2c1cccc(C(=O)O)c1 (stereo not drawn)  Criterion not met
 5  CCOC(=O)C1=C(C)Nc2nnnn2C1c1ccc2ccccc2c1 (stereo not drawn)      Criterion met
 6  CCCC1=C(C(=O)OCC)C(c2ccc(C(=O)O)cc2)C2=C(CC(C)(C)CC2=O)N1 (stereo not drawn)  Criterion not met
 7  COC(=O)C1=C(C)Nc2cc(C)nn2C1c1nc(C)cs1 (stereo not drawn)  Criterion not met
 8  O=C1OCC2=C1C(c1cccc3ccccc13)c1cnn(-c3ccccc3)c1N2 (stereo not drawn)      Criterion met
 9  CC1=C(C(=O)OCc2ccccc2)C(c2occc2-c2ccccc2)n2nnnc2N1 (stereo not drawn)      Criterion met
10  CC1=C(C(=O)OCc2ccccc2)C(c2ccsc2B(O)O)n2nnnc2N1 (stereo not drawn)  Criterion not met
11  CC1=C(C(=O)OCc2ccccc2)C(c2ccccc2Br)n2nnnc2N1 (stereo not drawn)      Criterion met
12  CC1=C(C(=O)OCc2ccccc2)C(c2ccc3c(c2)OCCO3)n2nnnc2N1 (stereo not drawn)      Criterion met

====

- Target of assay: wild-type human cardiac sodium channel, hNav1.5 (Homo sapiens, UniProt Q14524)
- Sequence (Q14524 whole entry): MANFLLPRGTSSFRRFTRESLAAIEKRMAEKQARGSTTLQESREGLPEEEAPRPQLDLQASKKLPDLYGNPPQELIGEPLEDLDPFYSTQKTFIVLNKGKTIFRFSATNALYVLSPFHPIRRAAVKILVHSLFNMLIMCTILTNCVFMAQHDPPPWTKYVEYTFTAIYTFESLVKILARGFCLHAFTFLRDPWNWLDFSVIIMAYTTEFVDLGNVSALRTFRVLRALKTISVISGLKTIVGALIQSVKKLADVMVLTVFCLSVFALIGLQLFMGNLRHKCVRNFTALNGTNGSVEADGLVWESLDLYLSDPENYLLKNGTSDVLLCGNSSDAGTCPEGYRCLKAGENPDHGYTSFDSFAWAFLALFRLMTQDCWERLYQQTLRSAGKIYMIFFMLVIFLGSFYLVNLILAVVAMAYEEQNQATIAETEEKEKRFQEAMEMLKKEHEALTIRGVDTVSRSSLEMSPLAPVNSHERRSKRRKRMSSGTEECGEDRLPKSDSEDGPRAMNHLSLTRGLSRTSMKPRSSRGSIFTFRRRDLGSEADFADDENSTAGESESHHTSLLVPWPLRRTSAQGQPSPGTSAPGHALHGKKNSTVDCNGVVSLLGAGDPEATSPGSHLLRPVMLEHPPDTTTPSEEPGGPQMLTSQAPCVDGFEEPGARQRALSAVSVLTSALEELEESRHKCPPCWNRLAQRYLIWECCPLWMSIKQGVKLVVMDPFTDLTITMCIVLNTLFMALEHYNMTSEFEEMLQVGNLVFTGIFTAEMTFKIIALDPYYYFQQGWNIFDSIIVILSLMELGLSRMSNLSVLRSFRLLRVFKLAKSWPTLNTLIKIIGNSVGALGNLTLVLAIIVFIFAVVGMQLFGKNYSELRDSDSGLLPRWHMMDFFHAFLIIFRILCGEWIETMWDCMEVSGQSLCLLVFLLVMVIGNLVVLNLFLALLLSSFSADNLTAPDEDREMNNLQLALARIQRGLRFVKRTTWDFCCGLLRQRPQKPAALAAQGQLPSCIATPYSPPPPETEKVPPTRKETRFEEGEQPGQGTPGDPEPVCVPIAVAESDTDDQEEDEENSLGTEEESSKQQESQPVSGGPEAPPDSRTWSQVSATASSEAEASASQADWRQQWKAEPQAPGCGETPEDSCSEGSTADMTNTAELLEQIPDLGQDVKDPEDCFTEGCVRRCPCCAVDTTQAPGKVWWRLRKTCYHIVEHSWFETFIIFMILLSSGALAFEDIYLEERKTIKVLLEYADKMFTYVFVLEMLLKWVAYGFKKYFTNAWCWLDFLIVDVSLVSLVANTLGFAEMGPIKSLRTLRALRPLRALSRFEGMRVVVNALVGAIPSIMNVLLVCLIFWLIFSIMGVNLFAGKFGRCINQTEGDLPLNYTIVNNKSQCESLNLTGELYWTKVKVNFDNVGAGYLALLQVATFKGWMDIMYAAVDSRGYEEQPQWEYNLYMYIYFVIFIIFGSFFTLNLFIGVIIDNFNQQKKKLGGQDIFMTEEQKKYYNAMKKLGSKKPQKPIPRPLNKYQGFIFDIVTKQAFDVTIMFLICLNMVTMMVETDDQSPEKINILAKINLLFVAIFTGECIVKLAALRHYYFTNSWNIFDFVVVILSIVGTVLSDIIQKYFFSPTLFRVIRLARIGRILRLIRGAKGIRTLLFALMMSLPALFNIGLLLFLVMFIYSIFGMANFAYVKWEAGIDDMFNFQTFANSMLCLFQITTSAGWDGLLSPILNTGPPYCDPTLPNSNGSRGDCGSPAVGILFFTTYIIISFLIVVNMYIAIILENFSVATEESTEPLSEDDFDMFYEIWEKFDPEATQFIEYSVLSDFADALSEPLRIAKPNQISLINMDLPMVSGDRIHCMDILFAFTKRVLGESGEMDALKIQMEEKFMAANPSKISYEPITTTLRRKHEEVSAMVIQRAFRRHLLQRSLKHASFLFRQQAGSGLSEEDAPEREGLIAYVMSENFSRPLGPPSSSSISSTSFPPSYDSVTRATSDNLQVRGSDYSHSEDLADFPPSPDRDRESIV
- Protocol details: Late INa screening assay (late sodium current, PatchXpress whole cell patch clamp)
- Type: cell-based
- Experimental conditions: compound at 10 μM; read-out: Late INa % blk
Property: inhibition at 10 µM (%)

                                   compound  value_units  test_result
0  CCOC(=O)C1=C(C)N(CC(=O)Nc2c(C)cccc2C)c2nnnn2C1c1ccccc1Br (centres unmarked)            %          7.3
1  CC1=C(C(=O)O[C@@H](C)c2ccccc2)C(c2cc3ccccc3o2)n2nnnc2N1 (some centres unmarked)            %         71.4
2  CCOC(=O)C1=C(C)Nc2nnnn2C1c1ccccc1-c1cccc(C#N)c1 (centres unmarked)            %         27.7
3  O=C1OCC2=C1C(c1cccc3ccccc13)c1cn[nH]c1N2 (centres unmarked)            %         16.9
4  CCOC(=O)C1=C(C)Nc2c(c(C)nn2C)C1c1cccc2ccccc12 (centres unmarked)            %         42.8

====

- Target of assay: wild-type human cardiac sodium channel, hNav1.5 (Homo sapiens)
- Protocol details: Late INa screening assay (late sodium current, PatchXpress whole cell patch clamp)
- Assay type: cell-based
- Experimental conditions: compound at 10 μM; read-out: Late INa % blk
Property: inhibition at 10 µM (%)

                                   molecule                           target_of_assay  test_result
0  CCOC(=O)C1=C(C)Nc2nnnn2C1c1cccc(Oc2cccc(C(=O)OCC)c2)c1 (stereo not shown)  wild-type human cardiac sodium channel, hNav1.5 (Homo sapiens)         71.8
1  COc1cc(OC)c(C2C(C(=O)OCc3ccccc3)=C(C)Nc3nnnn32)c(OC)c1 (stereo not shown)  wild-type human cardiac sodium channel, hNav1.5 (Homo sapiens)         34.4
2  CC1=C(C(=O)OCc2ccc(C#N)cc2)C(c2cccc3ccccc23)n2nnnc2N1 (stereo not shown)  wild-type human cardiac sodium channel, hNav1.5 (Homo sapiens)           67
3  COc1ccc(C2C(C(=O)OCc3ccccc3)=C(C)Nc3c(C(=O)O)cnn32)c2ccccc12 (stereo not shown)  wild-type human cardiac sodium channel, hNav1.5 (Homo sapiens)          5.2
4  CC1=C(C(=O)NNC(=O)Cc2ccccc2)C(c2cccc3ccccc23)n2nnnc2N1 (stereo not shown)  wild-type human cardiac sodium channel, hNav1.5 (Homo sapiens)          8.2
5  O=C1OCc2nc3c(cnn3-c3ccccc3)c(-c3cccc4ccccc34)c21  wild-type human cardiac sodium channel, hNav1.5 (Homo sapiens)         50.4
6  Cc1nn(-c2ccccc2)c2c1C(c1cccc3ccccc13)C1=C(COC1=O)N2 (stereo not shown)  wild-type human cardiac sodium channel, hNav1.5 (Homo sapiens)           30
7  COc1ccc2ccccc2c1C1C(C(=O)OCc2ccccc2)=C(C)Nc2nnnn21 (stereo not shown)  wild-type human cardiac sodium channel, hNav1.5 (Homo sapiens)         66.5
8  CCCC1=C(C(=O)OCC)C(c2ccc(Br)s2)C(C(=O)OCC)=C(CCC)N1  wild-type human cardiac sodium channel, hNav1.5 (Homo sapiens)           33
9  CCOC(=O)C1=C(C)Nc2nnnn2C1c1ccccc1I (stereo not shown)  wild-type human cardiac sodium channel, hNav1.5 (Homo sapiens)         39.3

====

- Target of assay: UniProt Q14524
- Protocol details: Peak INa screening assay (tonic block TB and use-dependent block UDB of peak sodium current)
- Assay type: cell-based
- Experimental conditions: tonic block; compound at 10 μM; read-out: Tonic Peak INa % blk
Reported inhibition at 10 µM by item:
Property: inhibition at 10 µM (%)

In [3]: df
Out[3]:
                                   compound  target_of_assay  test_result
0  N#CC1=C(N)OC2=C(C(=O)CC(c3ccccc3)C2)C1c1cccs1 (centres unmarked)   UniProt Q14524          2.9
1  CCOC(=O)C1=C(C)NC(C)=C(C(=O)OCC)C1c1ccc2ccccc2c1   UniProt Q14524         25.9
2  CCOC(=O)C1=C(C)Nc2[nH]ncc2C1c1ccc(OC)cc1OCc1ccccc1 (centres unmarked)   UniProt Q14524         49.6
3  CC1=C(C(=O)NCCCCc2ccccc2)C(c2ccsc2)C2=C(CCCC2=O)N1 (centres unmarked)   UniProt Q14524         10.2
4  CC1=C(C(=O)OCc2ccccc2)C(c2cccc3ccccc23)n2nnnc2N1 (centres unmarked)   UniProt Q14524         29.7
